Molecular target: T1, PaHisZ (Psychrobacter arcticus ATP phosphoribosyltransferase regulatory protein HisZ) (Psychrobacter arcticus, UniProt Q4FTX3 1-387)
T1 construct: HisZ, regulatory subunit of short-form ATP phosphoribosyltransferase, Psychrobacter arcticus; also called WT-PaHisZ
T1 sequence: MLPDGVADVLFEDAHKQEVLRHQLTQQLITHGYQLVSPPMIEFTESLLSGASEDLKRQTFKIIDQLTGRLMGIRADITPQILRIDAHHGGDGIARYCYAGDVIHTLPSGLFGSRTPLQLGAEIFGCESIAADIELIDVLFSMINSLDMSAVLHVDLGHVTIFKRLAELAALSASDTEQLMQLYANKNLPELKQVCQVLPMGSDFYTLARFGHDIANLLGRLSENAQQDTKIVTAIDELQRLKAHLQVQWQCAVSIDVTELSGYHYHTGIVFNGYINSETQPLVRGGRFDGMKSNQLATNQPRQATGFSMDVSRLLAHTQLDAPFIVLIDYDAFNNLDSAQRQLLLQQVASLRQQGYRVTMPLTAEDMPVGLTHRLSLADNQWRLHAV
Assay: enzyme activity titration (initial rate against HisZ concentration); apparent KD; fixed PaHisGS variant, HisZ (PaHisZ, His-tagged PaHisZ or AbHisZ) varied; initial velocities at 20 °C in 100 mM tricine, 100 mM KCl, 15 mM MgCl2, 4 mM DTT, pH 8.5, 5.6 mM ATP, 2 mM PRPP; fit to Eq. (3), or to Eq. (5) for R56A-PaHisGS with AbHisZ
Settings: both partners purified
readout-label: Kd (µM)
Note: unit µM is implicit; provide only the numeric part.

Task item: Value lookup for Kd; key = R32A-PaHisGS (enzyme, Psychrobacter arcticus, HisGS, Psychrobacter arcticus, with R32A; made from the WT-PaHisGS expression vector) MTEVTNSLPTSGLLNEANDEFLGLTLALSKGAILEETMPLLRAAGVELLEDPEASRKLIFPTSNPNVRVLILRASDVPTYVEHGAADFGVAGKDVLLEHGANHVYELLDLKIAQCKLMTAGVKDAPLPNRRLRIATKYVNVARAYFASQGQQVDVIKLYGSMELAPLVGLGDLIVDVVDTGNTLRANGLEARDHICDVSSRLIVNQVSYKRKFALLEPILDSFKNSINSTS
Reply: 0.49

Task item: Value lookup for Kd; key = WT-PaHisGS (Psychrobacter arcticus ATP phosphoribosyltransferase catalytic subunit HisGS) (enzyme, HisGS, catalytic subunit of short-form ATP phosphoribosyltransferase, Psychrobacter arcticus) MTEVTNSLPTSGLLNEANDEFLGLTLALSKGRILEETMPLLRAAGVELLEDPEASRKLIFPTSNPNVRVLILRASDVPTYVEHGAADFGVAGKDVLLEHGANHVYELLDLKIAQCKLMTAGVKDAPLPNRRLRIATKYVNVARAYFASQGQQVDVIKLYGSMELAPLVGLGDLIVDVVDTGNTLRANGLEARDHICDVSSRLIVNQVSYKRKFALLEPILDSFKNSINSTS
Reply: 0.44

More entries:
Task item: Value lookup for Kd; key = C115S-PaHisGS (enzyme, Psychrobacter arcticus, HisGS, Psychrobacter arcticus, with C115S; made from the WT-PaHisGS expression vector) MTEVTNSLPTSGLLNEANDEFLGLTLALSKGRILEETMPLLRAAGVELLEDPEASRKLIFPTSNPNVRVLILRASDVPTYVEHGAADFGVAGKDVLLEHGANHVYELLDLKIAQSKLMTAGVKDAPLPNRRLRIATKYVNVARAYFASQGQQVDVIKLYGSMELAPLVGLGDLIVDVVDTGNTLRANGLEARDHICDVSSRLIVNQVSYKRKFALLEPILDSFKNSINSTS
Reply: 1.7

Task item: Value lookup for Kd; key = R56A/K57A-PaHisGS (enzyme, Psychrobacter arcticus, HisGS, Psychrobacter arcticus, with R56A and K57A; made from the WT-PaHisGS expression vector) MTEVTNSLPTSGLLNEANDEFLGLTLALSKGRILEETMPLLRAAGVELLEDPEASAALIFPTSNPNVRVLILRASDVPTYVEHGAADFGVAGKDVLLEHGANHVYELLDLKIAQCKLMTAGVKDAPLPNRRLRIATKYVNVARAYFASQGQQVDVIKLYGSMELAPLVGLGDLIVDVVDTGNTLRANGLEARDHICDVSSRLIVNQVSYKRKFALLEPILDSFKNSINSTS
Reply: 5

Task item: Value lookup for Kd; key = R56A-PaHisGS (enzyme, Psychrobacter arcticus, HisGS, Psychrobacter arcticus, with R56A; made from the WT-PaHisGS expression vector) MTEVTNSLPTSGLLNEANDEFLGLTLALSKGRILEETMPLLRAAGVELLEDPEASAKLIFPTSNPNVRVLILRASDVPTYVEHGAADFGVAGKDVLLEHGANHVYELLDLKIAQCKLMTAGVKDAPLPNRRLRIATKYVNVARAYFASQGQQVDVIKLYGSMELAPLVGLGDLIVDVVDTGNTLRANGLEARDHICDVSSRLIVNQVSYKRKFALLEPILDSFKNSINSTS
Reply: 4

Data provenance is paper PMC9734150.
